These measurements were taken from ChEMBL document CHEMBL1614632.

Below: a set of entries, each annotated with reported Vd.
Test: clinical
Details: human, in vivo, iv, Vdss
result_type: Vd (L/kg)

1. C[C@@H]1C(=O)O[C@H]2[C@H](O)[C@@]34[C@H]5C[C@@H](C(C)(C)C)[C@]36[C@@H](OC(=O)[C@@H]6O)O[C@@]4(C(=O)O5)[C@@]12O [GINKOLIDE B] | 0.91
2. CCCCN1CCCCC1C(=O)Nc1c(C)cccc1C (centres undefined) | 0.84
3. CCC1(c2ccccc2)C(=O)NC(=O)NC1=O | 0.54
4. CC=CC1=C(C(=O)O)N2C(=O)[C@@H](NC(=O)[C@H](N)c3ccc(O)cc3)[C@H]2SC1 | 0.21
